biological target: UniProt:P31639; experiment: Inhibition of human Na+-glucose cotransporter (human SGLT2) activity: methyl-α-D-glucopyranoside intake in CHO cells stably expressing human SGLT2; conditions: CHO cell stably expressing human SGLT2; methyl-α-D-(U-14C)glucopyranoside intake, 37° C., two hours
Sequence (P31639 whole entry): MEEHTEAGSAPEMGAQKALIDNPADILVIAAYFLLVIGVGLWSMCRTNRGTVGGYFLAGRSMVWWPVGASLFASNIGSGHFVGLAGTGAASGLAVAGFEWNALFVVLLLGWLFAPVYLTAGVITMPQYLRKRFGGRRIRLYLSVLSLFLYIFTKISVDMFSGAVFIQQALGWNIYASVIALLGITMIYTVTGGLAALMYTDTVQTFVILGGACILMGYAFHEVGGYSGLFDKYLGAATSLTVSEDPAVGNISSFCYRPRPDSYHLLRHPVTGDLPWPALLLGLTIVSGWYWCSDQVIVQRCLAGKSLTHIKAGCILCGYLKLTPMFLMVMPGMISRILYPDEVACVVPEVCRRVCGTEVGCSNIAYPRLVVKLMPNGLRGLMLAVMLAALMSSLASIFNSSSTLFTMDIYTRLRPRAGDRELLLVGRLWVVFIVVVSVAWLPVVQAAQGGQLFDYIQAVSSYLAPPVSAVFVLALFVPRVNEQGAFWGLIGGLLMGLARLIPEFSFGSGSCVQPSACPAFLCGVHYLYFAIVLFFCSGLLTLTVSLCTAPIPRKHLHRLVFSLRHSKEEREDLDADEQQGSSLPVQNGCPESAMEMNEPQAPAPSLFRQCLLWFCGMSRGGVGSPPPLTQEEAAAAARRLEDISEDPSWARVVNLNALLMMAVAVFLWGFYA
Assay readout: IC50 (nM)

{"Given smiles": "OC[C@H]1O[C@@H](c2cc(Cc3cc4ccccc4s3)c(O)cc2O)[C@H](O)[C@@H](O)[C@@H]1O", "Assay readout": "IC50", "Reported measurement": 21}
{"Given smiles": "COc1ccc([C@@H]2O[C@H](CO)[C@@H](O)[C@H](O)[C@H]2O)cc1Cc1cc2ccccc2s1", "Assay readout": "IC50", "Reported measurement": 14}
{"Given smiles": "CCc1ccc(Cc2nc([C@@H]3O[C@H](CO)[C@@H](O)[C@H](O)[C@H]3O)c(Cl)nc2Cl)cc1", "Assay readout": "IC50", "Reported measurement": 6.5}
{"Given smiles": "OC[C@H]1O[C@@H](c2cc(Cc3cc4ccsc4s3)ccc2O)[C@H](O)[C@@H](O)[C@@H]1O", "Assay readout": "IC50", "Reported measurement": 6.6}
{"Given smiles": "COc1cc(OC)c([C@@H]2O[C@H](CO)[C@@H](O)[C@H](O)[C@H]2O)cc1Cc1cc2ccccc2s1", "Assay readout": "IC50", "Reported measurement": 3.8}
{"Given smiles": "COc1ccc(Cc2cc3ccccc3s2)cc1[C@@H]1O[C@H](CO)[C@@H](O)[C@H](O)[C@H]1O", "Assay readout": "IC50", "Reported measurement": 13}
